Quick reference: IC50 of the listed items.
biological target: 3',5'-cyclic-AMP phosphodiesterase 4D (Homo sapiens); assay: Inhibition of PDE4D2 (unknown origin) by preincubated for 30 mins before substrate addition and measured after 60 mins by IMAP TR-FRET phosphodiesterase evaluation assay
Sequence (Q08499 whole entry): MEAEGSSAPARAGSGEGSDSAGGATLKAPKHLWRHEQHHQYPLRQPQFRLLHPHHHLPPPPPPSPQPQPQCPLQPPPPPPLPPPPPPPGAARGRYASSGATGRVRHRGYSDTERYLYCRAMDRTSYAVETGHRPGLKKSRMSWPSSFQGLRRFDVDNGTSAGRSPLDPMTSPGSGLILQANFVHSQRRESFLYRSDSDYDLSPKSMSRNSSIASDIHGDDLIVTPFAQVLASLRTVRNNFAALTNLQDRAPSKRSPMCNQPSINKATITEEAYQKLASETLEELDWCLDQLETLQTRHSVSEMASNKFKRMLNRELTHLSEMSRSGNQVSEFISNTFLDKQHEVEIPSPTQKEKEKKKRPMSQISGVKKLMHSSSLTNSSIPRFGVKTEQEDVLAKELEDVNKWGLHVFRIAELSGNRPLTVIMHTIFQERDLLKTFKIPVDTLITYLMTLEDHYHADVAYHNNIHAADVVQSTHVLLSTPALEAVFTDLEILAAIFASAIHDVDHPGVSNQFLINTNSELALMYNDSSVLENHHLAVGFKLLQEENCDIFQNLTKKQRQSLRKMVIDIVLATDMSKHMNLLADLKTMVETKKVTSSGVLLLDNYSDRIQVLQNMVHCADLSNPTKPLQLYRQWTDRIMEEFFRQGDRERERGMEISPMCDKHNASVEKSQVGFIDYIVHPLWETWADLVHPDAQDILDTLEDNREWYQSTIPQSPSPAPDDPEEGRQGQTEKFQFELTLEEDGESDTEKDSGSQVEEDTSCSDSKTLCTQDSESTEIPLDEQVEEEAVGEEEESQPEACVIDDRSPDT
PARAMETER: IC50 (µM)

[
  {
    "COMPOUND": "COc1ccc(-c2c3ccc(OC)cc3c3c4c(ccc(-c5ccc(O)cc5)c24)[C@@H](c2ccc(O)cc2)OC3=O)cc1",
    "UNITS OF MEASURE": "µM",
    "INEQUALITY OPERATOR": ">",
    "MEAS VALUE": 30
  },
  {
    "COMPOUND": "COc1ccc([C@@]2(c3ccc(O)cc3)c3cc(O)ccc3-c3ccc(CO)c(C#Cc4ccc(O)cc4)c32)cc1",
    "UNITS OF MEASURE": "µM",
    "INEQUALITY OPERATOR": "=",
    "MEAS VALUE": 32.1
  },
  {
    "COMPOUND": "COc1ccc(-c2c3ccc(OC)cc3c3c4c(ccc(-c5ccc(O)cc5)c24)C(=O)O[C@H]3c2ccc(O)cc2)cc1",
    "UNITS OF MEASURE": "µM",
    "INEQUALITY OPERATOR": "=",
    "MEAS VALUE": 13.7
  },
  {
    "COMPOUND": "COCc1cc(O)c2c(c1C#Cc1ccc(O)cc1)C(c1ccc(O)cc1)(c1ccc(O)cc1)c1cc(O)ccc1-2",
    "UNITS OF MEASURE": "µM",
    "INEQUALITY OPERATOR": "=",
    "MEAS VALUE": 29.5
  },
  {
    "COMPOUND": "COc1ccc(C2(c3ccc(OC)cc3)c3cc(O)ccc3-c3ccc(CO)c(C#Cc4ccc(O)cc4)c32)cc1",
    "UNITS OF MEASURE": "µM",
    "INEQUALITY OPERATOR": "=",
    "MEAS VALUE": 5.4
  },
  {
    "COMPOUND": "COCc1ccc2c(c1C#Cc1ccc(O)cc1)C(c1ccc(O)cc1)(c1ccc(O)cc1)c1cc(O)ccc1-2",
    "UNITS OF MEASURE": "µM",
    "INEQUALITY OPERATOR": "=",
    "MEAS VALUE": 23.2
  }
]
